test: A: acetonitrile + 0.1% formic acid + 10 mM ammonium formate; B: 5% water + 95% acetonitrile + 0.1% formic acid + 10 mM ammonium formate; gradient (min/%B) 0/10 2/10 22/100 27/100 27.1/10; conditions: stereoisomer not certain
Label Satisfied for high-side LC retention time (at or above 2 min) and Not satisfied for low-side LC retention time (below it).

1) CC(C)=CCCC(C)CC=O (single isomer, unassigned; (-)) [(-)-Citronellal]
Not satisfied
2) NCCc1c[nH]c2ccccc12 [Tryptamine]
Satisfied
3) CN1C(=O)CCC1c1cccnc1 [(S)-Cotinine]
Not satisfied
4) CC(=O)O[C@H](CC(=O)[O-])C[N+](C)(C)C [O-Acetyl-L-carnitine]
Satisfied
5) N[C@@H](CCO)C(=O)O [L-Homoserine]
Satisfied
6) NCC(N)C(=O)O (racemic) [DL-2,3-Diaminopropionic acid]
Satisfied
7) Cc1ncc(CO)c(C(=O)O)c1O [4-Pyridoxic acid]
Not satisfied
8) NC(N)=NCC(=O)O [Guanidoacetic acid]
Satisfied
9) OCC1OC(OC2(CO)OC(CO)C(O)C2O)C(O)C(O)C1O (stereo unspecified) [Sucrose]
Satisfied
10) COc1ccc2[nH]cc(CCNC(C)=O)c2c1 [Melatonin]
Not satisfied
11) NC(N)=Nc1nc(CSCCC(N)=NS(N)(=O)=O)cs1 [Famotidine]
Satisfied
12) O=c1cc(-c2ccc(O)cc2)oc2cc(O)cc(O)c12 [Apigenin]
Not satisfied
13) CC(=O)NC(CCC(=O)O)C(=O)O (stereo unspecified) [N-Acetylglutamic acid]
Satisfied
14) CC(=O)N[C@@H](CCCN)C(=O)O [N-Acetyl-L-ornithine]
Satisfied
15) NCC(O)c1ccc(O)cc1 (stereo unspecified) [Octopamine]
Satisfied
16) CC(=O)N[C@@H](Cc1ccccc1)C(=O)O [N-Acetyl-L-phenylalanine]
Not satisfied
17) O=C(O)c1ccccc1C(=O)O [Phthalic acid]
Not satisfied
18) CC(=O)NCCc1c[nH]c2ccc(O)cc12 [N-Acetyl-5-hydroxytryptamine]
Not satisfied
19) Nc1ncnc2c1ncn2C1OC2COP(=O)(O)OC2C1O (stereo unspecified) [Adenosine cyclophosphate]
Satisfied
20) N[C@@H](CCSSCC[C@H](N)C(=O)O)C(=O)O [L-Homocystine]
Satisfied

----------
test: A: acetonitrile + 0.1% formic acid + 10 mM ammonium formate; B: 5% water + 95% acetonitrile + 0.1% formic acid + 10 mM ammonium formate; gradient (min/%B) 0/10 2/10 22/100 27/100 27.1/10; details: stereoisomer not certain
Binary label based on LC retention time with cut-off 3 min: below gives Met, not below gives Not met.

1. Cc1cnc(=O)[nH]c1N [5-Methylcytosine]
Not met
2. Cc1ncc(C[n+]2csc(CCOP(=O)([O-])O)c2C)c(N)n1 [Thiamine monophosphate]
Not met
3. OCC1OC(OC2C(CO)OC(O)(CO)C2O)C(O)C(O)C1O (centres undefined) [Lactulose]
Not met
4. CC(=O)N[C@@H](CS)C(=O)O [N-Acetyl-L-cysteine]
Not met
5. COC(=O)C1=C(C)NC(C)=C(C(=O)OC)C1c1ccccc1[N+](=O)[O-] [Nifedipine]
Met
6. O=C(O)CN(CCN(CC(=O)O)CC(=O)O)CC(=O)O [Ethylenediaminetetraacetic acid]
Not met
7. O=c1c(-c2ccc(O)cc2)coc2cc(O)ccc12 [Daidzein]
Met
8. CC(C)NCC(O)COc1cccc2ccccc12 (racemic) [(+/-)-Propranolol]
Met
9. Cc1cc2nc3c(=O)[nH]c(=O)nc-3n(CC(O)C(O)C(O)CO)c2cc1C (centres undefined) [Riboflavin]
Not met

----------
experiment: A: acetonitrile + 0.1% formic acid + 10 mM ammonium formate; B: 5% water + 95% acetonitrile + 0.1% formic acid + 10 mM ammonium formate; gradient (min/%B) 0/10 2/10 22/100 27/100 27.1/10; conditions: stereoisomer not certain
Documented LC retention time across a set of compounds
Endpoint Label: LC retention time (min)

1) CCC(C)C(=O)OC1CC(C)C=C2C=CC(C)C(CCC3CC(O)CC(=O)O3)C21 (stereo not given)
0.419
2) CC(C)[C@H](NC(=O)CN)C(=O)O
6.02
3) N[C@@H](CS(=O)(=O)O)C(=O)O
6.79
4) O=C(c1ccc(OCCN2CCCCC2)cc1)c1c(-c2ccc(O)cc2)sc2cc(O)ccc12
1.42
5) CCOC(=O)N1CCC(=C2c3ccc(Cl)cc3CCc3cccnc32)CC1
0.433
6) CC(C)CC(=O)NCC(=O)O
1.63
7) Cc1cnc(C(=O)NCCc2ccc(S(=O)(=O)NC(=O)NC3CCCCC3)cc2)cn1 [Glipizide]
0.463
8) CN(C)CC(=O)O
5.8
9) CN(C)CCOc1ccc(C(=C(CCCl)c2ccccc2)c2ccccc2)cc1
0.772
10) Cc1ncc(CO)c(C=O)c1O
0.981
11) NC12CC3CC(CC(C3)C1)C2
2.36
12) CCCC[C@H](N)C(=O)O
4.99
13) CC(C)C[C@H](N)C(=O)N[C@@H](C)C(=O)O
5.82
14) O=C(O)CCc1c[nH]c2ccccc12
0.467
15) COc1ccc(OC)c(C(O)C(C)N)c1 (stereo not given)
2.4
16) O=C(O)CNC(=O)CCc1ccccc1
1.25
17) COc1ccccc1C=CC=O
0.436
18) NC(=O)NC(CC(=O)O)C(=O)O (stereo not given)
5.96
19) O=C(C=Cc1ccc(O)c(O)c1)OC1CC(O)(C(=O)O)CC(O)C1O (stereo not given)
4.76
20) NC1(C(=O)O)CC1
6.03

----------
assay: A: acetonitrile + 0.1% formic acid + 10 mM ammonium formate; B: 5% water + 95% acetonitrile + 0.1% formic acid + 10 mM ammonium formate; gradient (min/%B) 0/10 2/10 22/100 27/100 27.1/10; settings: stereoisomer not certain
Documented log10 of LC retention time across a set of compounds
Endpoint Label: log10 of LC retention time (log10 of the value in min)

1. CC(=O)N[C@@H](Cc1ccc(O)cc1)C(=O)O
0.45
2. CC=C(C)C(=O)NCC(=O)O
0.29
3. O=C1OC2(c3ccccc31)c1cc(I)c(O)c(I)c1Oc1c2cc(I)c(O)c1I
-0.24
4. N[C@@H](Cc1ccc(O)c(O)c1)C(=O)O
0.78
5. Cc1nc2n(c(=O)c1CCN1CCC(c3noc4cc(F)ccc34)CC1)CCCC2
0.38
6. NC(CCSCC(N)C(=O)O)C(=O)O (centres undefined)
0.90
7. Cc1noc(NS(=O)(=O)c2ccc(N)cc2)c1C
-0.35
8. Cc1ncc(COP(=O)(O)O)c(C=O)c1O [Pyridoxal 5'-phosphate]
0.78
9. O=P(O)(O)OCC1OC(O)C(O)C1O [D-Ribose 5-phosphate]
0.85
10. NCCCCC(NC(CCc1ccccc1)C(=O)O)C(=O)N1CCCC1C(=O)O (centres undefined)
0.84
11. CCC(C)C(=O)NCC(=O)O (centres undefined)
0.19
12. c1ncc2[nH]cnc2n1
0.00
13. CCOC(=O)C1=C(COCCN)NC(C)=C(C(=O)OC)C1c1ccccc1Cl (centres undefined)
0.31
14. CN(C)CCOC(c1ccccc1)c1ccccc1 [Diphenhydramine]
-0.03
15. Nc1ncnc2c1ncn2C1CC(O)C(CO)O1 (centres undefined)
0.14
16. NC(=O)CCCCC1CCSS1 (racemic) [DL-6,8-Thioctamide]
-0.33
17. O=C(O)c1ccc2ccccc2n1
0.17
18. CCC(=O)OCC(=O)C1(OC(=O)CC)C(C)CC2C3CCC4=CC(=O)C=CC4(C)C3(Cl)C(O)CC21C (centres undefined) [Beclometasone dipropionate]
-0.38
19. CC1(C)SC2C(NC(=O)C(N)c3ccccc3)C(=O)N2C1C(=O)O (centres undefined)
0.69

----------
assay: A: acetonitrile + 0.1% formic acid + 10 mM ammonium formate; B: 5% water + 95% acetonitrile + 0.1% formic acid + 10 mM ammonium formate; gradient (min/%B) 0/10 2/10 22/100 27/100 27.1/10; conditions: stereoisomer not certain
Endpoint Label: log10 LC retention time (log10 of the value in min)

1. CC(C)C[C@H](N)C(=O)O [L-Leucine]
0.70
2. CCCCc1oc2ccccc2c1C(=O)c1cc(I)c(OCCN(CC)CC)c(I)c1 [Amiodarone]
-0.12
3. CC(=O)NCCCCNCCCN [N8-Acetylspermidine]
0.86
4. COc1ccccc1OCCNCC(O)COc1cccc2[nH]c3ccccc3c12 (stereo unspecified) [Carvedilol]
0.01
5. C[N+](C)(C)C[C@H](O)CC(=O)[O-] [L-Carnitine]
0.79
6. COC(=O)Cc1ccc(C(C)(C)C)cc1 [Methyl p-tert-butylphenylacetate]
-0.38
7. NC(=O)c1ccc[n+](C2OC(COP(=O)(O)OP(=O)([O-])OCC3OC(n4cnc5c(N)ncnc54)C(O)C3O)C(O)C2O)c1 (stereo unspecified) [NAD]
0.89
8. NC(CCCC(N)C(=O)O)C(=O)O (stereo unspecified) [2,6-Diaminopimelic Acid]
0.91
9. N[C@H]1C(O)O[C@H](CO)[C@@H](O)[C@@H]1O (stereo partly drawn) [D-(+)-Glucosamine]
0.83
10. OCC1OC(OCC2OC(OC3(CO)OC(CO)C(O)C3O)C(O)C(O)C2O)C(O)C(O)C1O [D-(+)-Raffinose]
0.87
11. N[C@@H](Cc1cnc[nH]1)C(=O)O [L-Histidine]
0.89
12. Cc1cc2nc3c(=O)[nH]c(=O)nc-3n(CC(O)C(O)C(O)COP(=O)(O)O)c2cc1C (stereo unspecified) [Riboflavin 5'-Monophosphate]
0.80
13. Cc1ncc(CO)c(CN)c1O [Pyridoxamine]
0.81
14. Cc1occc(=O)c1O [3-Hydroxy-2-methyl-4-pyrone]
-0.21
15. O=Cc1ccc(O)c(O)c1 [3,4-Dihydroxybenzaldehyde]
-0.24
16. Nc1ccnc(=O)[nH]1 [Cytosine]
0.53
17. Nc1nc2c(ncn2CCC(CO)CO)c(=O)[nH]1 [Penciclovir]
0.65
18. O=C(O)Cc1c[nH]c2ccc(O)cc12 [5-Hydroxyindole-3-acetic acid]
-0.19
19. Cc1cn(C2CC(O)C(CO)O2)c(=O)[nH]c1=O (stereo unspecified) [Thymidine]
0.02
20. C[n+]1cccc(C(=N)[O-])c1 [1-Methylnicotinamide]
0.67
21. CNCCC(Oc1ccccc1C)c1ccccc1 (stereo unspecified) [Atomoxetine]
0.01
22. Nc1nc2[nH]c(=O)cnc2c(=O)[nH]1 [Isoxanthopterin]
0.60
23. CCCc1nc(C)c2c(=O)[nH]c(-c3cc(S(=O)(=O)N4CCN(CC)CC4)ccc3OCC)nn12 [Vardenafil]
0.03
24. CS(=N)(=O)CC[C@H](N)C(=O)O (stereo partly drawn) [(2S)-2-Amino-4-(S-methylsulfonimidoyl)butanoic acid]
0.83
25. CC(=O)NCC(=O)O [N-Acetylglycine]
0.75
26. CN[C@@H](CCC(=O)O)C(=O)O [N-Methyl-L-glutamic acid]
0.82
27. O=C(O)C(c1ccccc1)C1CCCCN1 (stereo unspecified) [Ritalinic Acid]
0.53
28. Nc1nc2nc[nH]c2c(=O)[nH]1 [Guanine]
0.60
29. Cn1cncc1C[C@H](N)C(=O)O [3-Methyl-L-histidine]
0.89
30. C=CC1CN2CCC1CC2C(O)c1ccnc2ccccc12 (stereo unspecified) [Cinchonidine]
0.34
31. CCCCCCCCCCCCCCCC(=O)OCC(COP(=O)(O)O)OC(=O)CCCCCCCCCCCCCCC (stereo unspecified) [1,2-Dipalmitoyl-sn-glycero-3-phosphate]
0.39
32. C=CC1=C(C)C(=Cc2[nH]c(Cc3[nH]c(C=C4NC(=O)C(C)=C4C=C)c(C)c3CCC(=O)O)c(CCC(=O)O)c2C)NC1=O [Bilirubin]
-0.29
33. CCC1=C(C)CN(C(=O)NCCc2ccc(S(=O)(=O)NC(=O)NC3CCC(C)CC3)cc2)C1=O (stereo unspecified) [Glimepiride]
-0.36
34. Nc1nc2c(c(=O)[nH]1)N(C=O)C(CNc1ccc(C(=O)NC(CCC(=O)O)C(=O)O)cc1)CN2 (stereo unspecified) [Folinic acid]
0.77
35. Nc1nc2c(ncn2C2CC(O)C(COP(=O)(O)O)O2)c(=O)[nH]1 (stereo unspecified) [2'-Deoxyguanosine 5'-monophosphate]
0.85
36. CC(C(=O)O)c1cccc(C(=O)c2ccccc2)c1 (stereo unspecified) [Ketoprofen]
-0.34
